meta.source: patent US20250129027A1

# test_protocol: Pharmacokinetic study in rats, IV and oral gavage, with brain penetration
# Type: in vivo, rat
# condition_context: male, Sprague Dawley, plasma; rat, PO 10.0 mg/kg; read-out: Cmax (ng/mL)

smiles_data	value_unit	Cmax
COc1ccc(OC(=O)NC2CCCCCC2)cc1-c1cncc(-c2nnco2)c1	ng/mL	2250
O=C(NC1CCCCC1)Oc1ccc(O)c(-c2cncc(-c3nnco3)c2)c1	ng/mL	1920

----------
# measurement_target: human recombinant FAAH (Homo sapiens (Human), UniProt O00519)
# Sequence (O00519 whole entry): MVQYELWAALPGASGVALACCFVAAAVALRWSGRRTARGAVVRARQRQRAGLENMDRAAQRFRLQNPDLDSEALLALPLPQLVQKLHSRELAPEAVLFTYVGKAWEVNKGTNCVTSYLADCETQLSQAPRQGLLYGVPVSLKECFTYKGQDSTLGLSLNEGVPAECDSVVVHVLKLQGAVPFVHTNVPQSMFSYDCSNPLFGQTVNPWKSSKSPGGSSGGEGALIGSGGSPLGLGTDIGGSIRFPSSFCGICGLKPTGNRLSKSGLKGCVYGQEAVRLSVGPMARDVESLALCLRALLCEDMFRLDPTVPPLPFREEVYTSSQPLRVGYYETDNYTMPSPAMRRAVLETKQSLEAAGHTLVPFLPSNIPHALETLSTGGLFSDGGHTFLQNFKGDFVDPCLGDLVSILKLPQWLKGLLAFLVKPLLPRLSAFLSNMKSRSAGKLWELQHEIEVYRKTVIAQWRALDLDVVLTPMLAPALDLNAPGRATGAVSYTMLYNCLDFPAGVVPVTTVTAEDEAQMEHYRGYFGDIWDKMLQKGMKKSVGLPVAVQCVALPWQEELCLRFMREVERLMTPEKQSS
# test_protocol: In vitro inhibition of FAAH activity (fluorescent inhibitor screening kit, AMC arachidonoyl amide)
# Assay type: biochemical
# condition_context: human recombinant FAAH; read-out: Inhibition on FAAH activity (IC50)

smiles_data	IC50
O=C(NC1CCCCC1)Oc1ccc(F)c(-c2cncc(-c3nnco3)c2)c1	10 to 100 nM
O=C(NC1CCCC1)Oc1cccc(-c2cncc(-c3ccco3)c2)c1	10 to 100 nM
CCCCCCCCNC(=O)Oc1cccc(-c2cncc(C(F)(F)F)c2)c1	10 to 100 nM
COC(=O)c1cncc(-c2cccc(OC(=O)NC34CC5CC(CC(C5)C3)C4)c2)c1	> 1000 nM
CCCCCCCCNC(=O)Oc1ccc(OC)c(-c2cncc(-c3cccs3)c2)c1	10 to 100 nM
CCCCCNC(=O)Oc1cccc(-c2cncc(C=O)c2)c1	10 to 100 nM
COc1ccc(OC(=O)NCC2CCCCC2)cc1-c1cncc(-c2nncs2)c1	10 to 100 nM
O=C(NC1CCCCCC1)Oc1cc(F)cc(-c2cncc(-c3nnco3)c2)c1	132 nM
O=C(NCc1ccccc1)Oc1cccc(-c2cncc(-c3ccc[nH]3)c2)c1	~1000 nM
O=C(NCc1ccccc1)Oc1cccc(-c2cncc(-c3nnco3)n2)c1	100 to 1000 nM
O=C(NC1CCCCCC1)Oc1cccc(-c2cncc(-c3nnco3)n2)c1	10 to 100 nM
O=C(NCc1ccccc1)Oc1cccc(-c2cncc(-c3cccs3)c2)c1	~100 nM
COc1cc(OC(=O)NC2CCCCCC2)cc(-c2cncc(-c3nnco3)c2)c1	91.1 nM
O=Cc1cncc(-c2cccc(OC(=O)NCC3CCCCC3)c2)c1	10 to 100 nM
O=C(NCC1CCCCC1)Oc1cccc(-c2cncc(C(F)(F)F)c2)c1	10 to 100 nM
COc1ccc(OC(=O)NC2CCCCC2)cc1-c1cncc(-c2ncco2)c1	10 to 100 nM
COc1ccc(OC(=O)NC2CCCCCC2)cc1-c1cncc(-c2nncs2)c1	10 to 100 nM
CCCCCNC(=O)Oc1cccc(-c2cncc(C(=O)OC)c2)c1	10 to 100 nM
